Reported CC50 values are given for each entry in this list.
# Test system: Vero E6 viability, CellTiter-Glo luminescence, 96 h
# assay_summary: Vero E6 cell cytotoxicity, SAR follow-up, cytotoxicity control for West Nile virus antiviral project, synthesized analogs, extended characterization 2 (AID 623930)

{"columns": ["structure_smiles", "quantity_name", "value_reported"],
 "data": [
  ["Cc1cc(-n2c(SCC(=O)Nc3nc(-c4ccccc4)cs3)nc3ccccc3c2=O)ccc1F", "CC50", "87.8 µM"],
  ["O=C(CSc1nc2c(F)cccc2c(=O)n1-c1cc(Cl)cc(Cl)c1)Nc1ccc2c(c1)CCC2", "CC50", "77 µM"],
  ["O=C(CSc1nc2ccccc2c(=O)n1-c1cc(F)cc(F)c1)Nc1nc(-c2ccccc2)cs1", "CC50", "82.9 µM"]
]}

Please report the measured CC50 for O=C(CSc1nc2c(F)cccc2c(=O)n1-c1ccc(Cl)c(Cl)c1)Nc1ccc2c(c1)CCC2 tested on Vero E6 viability, CellTiter-Glo luminescence, 96 h. 34.5 µM

Please report the measured CC50 for O=C(CSc1nc2ccccc2c(=O)n1-c1c(Cl)cccc1Cl)Nc1nc(-c2ccccc2)cs1 tested on Vero E6 viability, CellTiter-Glo luminescence, 96 h. 52.6 µM

Please report the measured CC50 for O=C(CSc1nc2c(Cl)cccc2c(=O)n1-c1cc(Cl)cc(Cl)c1)Nc1ccc2c(c1)CCC2 tested on Vero E6 viability, CellTiter-Glo luminescence, 96 h. 72.2 µM
